Assay: Octanol-water distribution coefficient, log D of the compound at pH 5.4 by stir flask method
Format: physicochemical
RECORDED METRIC: logD
Give a plain numeric answer without units written out.

Query :: Fill in: logD of CC[C@@]12C=C(C(=O)O)n3c4c(c5ccccc53)CCN(CCC1)[C@H]42 is ___
Result :: -0.97

* * *

Experiment: Octanol-water distribution coefficient, log D of the compound at pH 13.18 by stir flask method
Format: physicochemical
Measured logD accompanies every entry in the list below.
The response must contain the number and no unit.

MOL: CC[C@@]12C=C(C(=O)O)n3c4c(c5ccccc53)CCN(CCC1)[C@H]42
REPORTED MEASUREMENT: -0.07

Now look at this one.
Query :: # lookup: logD of CC[C@@]12C=C(C(=O)O)n3c4c(c5ccccc53)CCN(CCC1)[C@@H]42
Result :: 0.21

* * *

Experiment: Octanol-water distribution coefficient, log D of the compound at pH 0.82 by stir flask method
Format: physicochemical
RECORDED METRIC: logD
Number only, no unit.

Some solved entries appear below for comparison.
MOL: CCOC(=O)C1=C[C@]2(CC)CCCN3CCc4c(n1c1ccccc41)[C@@H]32
RECORDED METRIC: logD
REPORTED MEASUREMENT: 0.94
//
MOL: CC[C@@]12C=C(C(=O)O)n3c4c(c5ccccc53)CCN(CCC1)[C@H]42
RECORDED METRIC: logD
REPORTED MEASUREMENT: -0.05
//
MOL: CCOC(=O)C1=C[C@]2(CC)CCCN3CCc4c(n1c1ccccc41)[C@H]32
RECORDED METRIC: logD
REPORTED MEASUREMENT: 0.9

Next compound, logD to be filled in.
Query :: Need logD of CC[C@@]12C=C(C(=O)O)n3c4c(c5ccccc53)CCN(CCC1)[C@@H]42 , thanks.
Result :: 0.13

* * *

Assay: Octanol-water distribution coefficient, log D of the compound at pH 4.96 by stir flask method
Type: physicochemical
RECORDED METRIC: logD
The reply should be a number, written without any unit.

Query :: Would you kindly share the measured logD for CC[C@@]12C=C(C(=O)O)n3c4c(c5ccccc53)CCN(CCC1)[C@@H]42 ?
Result :: -0.14

* * *

Assay: Octanol-water partition coefficient, log P of zwitter ionic form of compound at 0.15 M ionic strength by stir flask method
Format: physicochemical
RECORDED METRIC: logP
# print the numeric value only

MOL: CC[C@@]12C=C(C(=O)O)n3c4c(c5ccccc53)CCN(CCC1)[C@H]42
RECORDED METRIC: logP
REPORTED MEASUREMENT: -1.03

Switching to the query record.
Query :: Dear colleague, I am looking for the recorded logP of the following compound: CC[C@@]12C=C(C(=O)O)n3c4c(c5ccccc53)CCN(CCC1)[C@@H]42
Result :: -0.22

* * *

Collected logP values appear next to each entry.
Experiment: Octanol-water partition coefficient, log P of noncharged form of compound at 0.15 M ionic strength by stir flask method
Format: physicochemical
// no unit string in output, number only

MOL: CCOC(=O)C1=C[C@]2(CC)CCCN3CCc4c(n1c1ccccc41)[C@@H]32
RECORDED METRIC: logP
REPORTED MEASUREMENT: 4.45

Query :: Query: logP; subject: CCOC(=O)C1=C[C@]2(CC)CCCN3CCc4c(n1c1ccccc41)[C@H]32
Result :: 4.75

Query :: Report logP for CC[C@@]12C=C(C(=O)O)n3c4c(c5ccccc53)CCN(CCC1)[C@@H]42 please.
Result :: 3.98

Query :: Requested field: logP. Item: CC[C@@]12C=C(C(=O)O)n3c4c(c5ccccc53)CCN(CCC1)[C@H]42
Result :: 3.46
